# Assay method text: chemical genetic growth profiling, strain panel (AID 1159580);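 also: tested at 20 µM; growth read once vehicle control cultures reached saturation at 30 °C; 1 = growth at the plate median or of vehicle wells; lower values mean less growth of the strain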
# Recorded conditions: S. cerevisiae deletion strains, growth OD, locus YHR079C, strain IRE1 (second series), stronger effect = lower value
Among all 5,500 compounds or so, about 2,000 (36%) were called active. Inconclusive results (about 18%) are left out. The list shows a part of the results.
Observable: normalized growth
Number, no unit, nothing else.

GET /value?item= `Clc1ccc2c(c1)C(N1CCNCC1)=Nc1ccccc1O2` &field=normalized growth returns 0.986

GET /value?item= `CN1CCN(C2=Nc3ccccc3Oc3ccc(Cl)cc32)CC1` &field=normalized growth returns 0.99

GET /value?item= `Cc1nc2ccccn2c(=O)c1CCN1CCC(C(=O)c2ccc(F)cc2)CC1` &field=normalized growth returns 0.985

GET /value?item= `CN(C)C(=O)Nc1ccc(Cl)c(Cl)c1` &field=normalized growth returns 0.992

GET /value?item= `CNC(=O)Oc1ccc2c(c1)[C@]1(C)CCN(C)[C@@H]1N2C` &field=normalized growth returns 1

GET /value?item= `NC(N)=NCCC[C@@H](NC(=O)[C@@H](N)Cc1ccc(O)cc1)C(=O)O` &field=normalized growth returns 1.01
